Source listed as patent US12509460B2.

- Tested on: MDR1
- assayName: Blood-brain-barrier (BBB) penetration potential via MDCK-MDR1 permeability assay
- conditionNotes: dog, MDCK-MDR1, pH 7.4, MDCK-MDR1: Efflux, efflux ratio
parameterMeasured: efflux ratio at 120 min, 5 μM
One number for each entry.

# compound, subjectOfTest, efflux ratio at 120 min, 5 μM
rows = [
    ("CN(c1ccc(-c2ccc(-n3cnc(C#N)c3)cc2O)nn1)[C@@H]1C[C@H]2CCC[C@H](N2)[C@@H]1F [Compound 63A]", "MDR1", 31),
]

Below are some compounds; for each one, tell me its efflux ratio at 120 min, 5 μM.
1. CN(c1ccc(-c2ccc(-c3nnco3)cc2O)nn1)[C@H]1C[C@@H]2CC[C@@H](N2)[C@H]1F [Compound 44B]
2. CN(c1ccc(-c2ccc(-n3cnc(Cl)c3)cc2O)nn1)C1CC2CC(F)(F)C(C1)N2 (single isomer, unassigned) [Compound 37A]
3. CN(C)C(=O)c1cc2cc(O)c(-c3ccc(N(C)[C@H]4C[C@@H]5CC[C@@H](N5)[C@H]4F)nn3)cc2o1

Response given:
[7, 2, 78]
